Molecular target: T1, human B7-H7 (soluble analyte in SPR) (human, UniProt Q9UM44 23-344, limits assumed)
T1 sequence: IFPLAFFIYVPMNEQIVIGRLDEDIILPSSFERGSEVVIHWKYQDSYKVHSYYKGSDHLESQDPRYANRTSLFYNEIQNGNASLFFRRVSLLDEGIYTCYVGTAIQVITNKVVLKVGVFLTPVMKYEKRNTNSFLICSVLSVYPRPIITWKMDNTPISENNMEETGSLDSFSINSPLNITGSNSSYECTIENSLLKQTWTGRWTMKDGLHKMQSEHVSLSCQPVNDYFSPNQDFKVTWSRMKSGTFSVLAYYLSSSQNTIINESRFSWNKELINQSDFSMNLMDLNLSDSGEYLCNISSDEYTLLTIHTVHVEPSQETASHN
Experiment: SPR (Biacore), antibody captured by anti-Fc on CM5 chip, B7-H7 injected, 37 C
Examples of binders with documented pKd follow.
Value format note: pKd is -log10 of concentration (mol/L); just state the number.

BINDER: anti-B7-H7 antibody 5F7 (antibody, V domains shown, Mouse hybridoma antibody) VH: QEQLQQPGTELVKPGASVKISCKASGYTFSSYSMHWVKLTPGQGLEWMGTIYPGNENTSYNQKFKGKATLTADKSSSTAYMQLSSLTSEDSAVYYCARGGYYFDYWGQGTTLTVSS VL: DIVMTQSHKFLSTSVGDRVSITCKASQDVSTAVAWYQQKPGQSPKLLIYWASTRHTGVSDRFTGSGSGTDFTLTISSVQAEDLALYYCQQHFDIPYWFGGGTKLEIK
pKd: 9.22

Turning to the following binder.
Query: Tell me the measured pKd of anti-B7-H7 antibody 2F10 (antibody, V domains shown, Mouse hybridoma antibody) VH: EIQLQQTGPELVKPGASLRISCKASGYSFTDYIIVWVKQNQGKNLDWIEKINPYYGTTTYNLRFEDKATLTVNKSSTTAYMQLNSLTSEDSAVYYCARWDYVSTLFAMDYWGQGTSITVSS VL: DIVMTQSHKVMSTSVGDRVSIICKASQDVGTAVAWYQQKPGQSPKLLIYWASTRHTGVPDRFTGSGSGTDFILTITNVQSENLANYFCQQYKRYYTFGGGTKLEIK , please.
Result: 9.52
